List of LD50 at 168 h values.
assay: Acute toxicity by oral or intraperitoneal administration to ddY mice; conditions: mouse, in vivo, oral, 7 days, Litchfield-Wilcoxon, read-out: LD50 (po)
Give the quantity in mg/kg, number only.

1. CCCC[C@@H]1OC[C@@H](O)[C@H](O)[C@H]1O [C--n-Butyl-β-D-xylopyranoside, C-n-Butyl-β-D-xylopyranoside] = 5800

Next molecule, please.
input: Param item = CC[C@@H]1OC[C@@H](O)[C@H](O)[C@H]1O [C--Ethyl-β-D-xylopyranoside, C-Ethyl-β-D-xylopyranoside] ; retrieve measured LD50 at 168 h.
output: 6900
